Target: T1, FcγRIIA (human, UniProt P12318 34-217, limits assumed)
T1 construct: also called CD32; not shown: His-tag fused to the C-terminus
T1 sequence (looked up): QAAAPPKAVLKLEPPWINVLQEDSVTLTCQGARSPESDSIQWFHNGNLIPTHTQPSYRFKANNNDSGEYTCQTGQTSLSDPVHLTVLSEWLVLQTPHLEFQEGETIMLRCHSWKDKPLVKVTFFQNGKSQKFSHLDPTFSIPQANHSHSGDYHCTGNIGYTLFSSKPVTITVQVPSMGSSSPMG
Assay: ratio of SPR KDs, reference Fc-WT
MEASURED_ATTRIBUTE: fold decrease in binding (Fc-variant KD/Fc-WT KD)

Known fold decrease in binding (Fc-variant KD/Fc-WT KD) results, listed for orientation:
IgG1 Fc variant Fc-226^hg/290^hg/S298A (other, N-linked glycans at Asn297 and at engineered Asn226 and Asn290 (IgG1 heavy chain positions)) EPKSCDKTHTNSTCPAPELLGGPSVFLFPPKPKDTLMISRTPEVTCVVVDVSHEDPEVKFNWYVDGVEVHNAKTNSTEEQYNATYRVVSVLTVLHQDWLNGKEYKCKVSNKALPAPIEKTISKAKGQPREPQVYTLPPSREEMTKNQVSLTCLVKGFYPSDIAVEWESNGQPENNYKTTPPVLDSDGSFFLYSKLTVDKSRWQQGNVFSCSVMHEALHNHYTQKSLSLSPGK : 10.7 fold
IgG1 Fc variant Fc-226^hg/290^hg (other, N-linked glycans at Asn297 and at engineered Asn226 and Asn290 (IgG1 heavy chain positions), Both CPP (226-228) and KPR (290-292) replaced by NST) EPKSCDKTHTNSTCPAPELLGGPSVFLFPPKPKDTLMISRTPEVTCVVVDVSHEDPEVKFNWYVDGVEVHNAKTNSTEEQYNSTYRVVSVLTVLHQDWLNGKEYKCKVSNKALPAPIEKTISKAKGQPREPQVYTLPPSREEMTKNQVSLTCLVKGFYPSDIAVEWESNGQPENNYKTTPPVLDSDGSFFLYSKLTVDKSRWQQGNVFSCSVMHEALHNHYTQKSLSLSPGK : 7.6 fold
Fc-226^hg/290^hg/E333A/K334A (other, N-linked glycans at Asn297 and at engineered Asn226 and Asn290 (IgG1 heavy chain positions)) EPKSCDKTHTNSTCPAPELLGGPSVFLFPPKPKDTLMISRTPEVTCVVVDVSHEDPEVKFNWYVDGVEVHNAKTNSTEEQYNSTYRVVSVLTVLHQDWLNGKEYKCKVSNKALPAPIAATISKAKGQPREPQVYTLPPSREEMTKNQVSLTCLVKGFYPSDIAVEWESNGQPENNYKTTPPVLDSDGSFFLYSKLTVDKSRWQQGNVFSCSVMHEALHNHYTQKSLSLSPGK : 11.2 fold

Now consider the entry below.
State the recorded fold decrease in binding (Fc-variant KD/Fc-WT KD) for this entry: IgG1 Fc variant Fc-226^hg/290^hg/S298A/E333A/K334A (other, N-linked glycans at Asn297 and at engineered Asn226 and Asn290 (IgG1 heavy chain positions)) EPKSCDKTHTNSTCPAPELLGGPSVFLFPPKPKDTLMISRTPEVTCVVVDVSHEDPEVKFNWYVDGVEVHNAKTNSTEEQYNATYRVVSVLTVLHQDWLNGKEYKCKVSNKALPAPIAATISKAKGQPREPQVYTLPPSREEMTKNQVSLTCLVKGFYPSDIAVEWESNGQPENNYKTTPPVLDSDGSFFLYSKLTVDKSRWQQGNVFSCSVMHEALHNHYTQKSLSLSPGK
10.7 fold

Cited source: patent US20160280766A1
